target: CYP2C9 (Homo sapiens); assay: in vitro; conditions: human, microsomes
Sequence (P11712 whole entry): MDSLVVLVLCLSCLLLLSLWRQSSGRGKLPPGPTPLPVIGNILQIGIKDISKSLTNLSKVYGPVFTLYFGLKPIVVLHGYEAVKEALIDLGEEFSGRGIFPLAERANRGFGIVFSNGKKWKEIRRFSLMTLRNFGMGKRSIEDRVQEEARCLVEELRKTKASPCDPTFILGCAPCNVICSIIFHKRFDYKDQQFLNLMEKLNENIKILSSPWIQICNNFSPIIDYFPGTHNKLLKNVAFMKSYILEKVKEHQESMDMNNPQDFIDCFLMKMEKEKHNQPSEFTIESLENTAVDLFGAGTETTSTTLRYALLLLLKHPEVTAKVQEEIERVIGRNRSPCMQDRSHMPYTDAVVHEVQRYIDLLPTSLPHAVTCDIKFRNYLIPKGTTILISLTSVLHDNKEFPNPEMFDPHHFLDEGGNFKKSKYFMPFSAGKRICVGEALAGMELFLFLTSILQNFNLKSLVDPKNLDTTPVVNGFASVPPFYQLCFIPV
This section presents compounds with their documented IC50 values.
Measurement kind: IC50

Compound	Reported value
CC(C)C[C@H]1C(=O)N[C@@H](C(C)C)C(=O)N[C@@H](Cc2ccccc2)C(=O)N[C@@H](C)[C@@H](C(=O)NC(C)(C)C)N2CCC[C@H]2C(=O)N[C@@H]([C@@H](C)O)C(=O)N1C	> 15 µM
Clc1ccc(COC(Cn2ccnc2)c2ccc(Cl)cc2Cl)c(Cl)c1 (stereo not shown) [Miconazole, reference compound]	0.32 µM
CC[C@H](C)[C@@H]1NC(=O)[C@H](CCO)NC(=O)[C@H](CC(C)C)NC(=O)[C@H](Cc2ccc3ccccc3c2)NC(=O)[C@@H]2CCCN2[C@H](C(=O)NC(C)(C)C)[C@H](C)NC1=O	> 15 µM
CC(C)C[C@@H]1NC(=O)[C@H](Cc2c[nH]c3ccccc23)NC(=O)[C@@H]2CCCN2[C@H](C(=O)NC(C)(C)C)[C@H](C)NC(=O)[C@H]([C@@H](C)O)NC(=O)[C@H](CC(=O)O)NC1=O	> 15 µM
